Tested on: RARg:RXRa (NR concentration 270 nM, RXRa partner concentration 90 nM)
Test: PBM binding z-score (relative to random genomic background probes); higher = stronger binding; sequences stand for … in GC…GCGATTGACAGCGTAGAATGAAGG
Quantity: PBM binding z-score
Respond numerically, and do not add a unit to the figure.

Examples from the recorded data:
| Monomer sequence | Result |
| --- | --- |
| GATACAGGGTCAGCTAGAGGCCAGAGTATGGAAA | 6.67 |
| TCTGGTTGGTCACGGAGGTCACACACGACGGGTA | 4.91 |
| CTCGAAAGGTCGGTTGAGGTGAATATACGGATAA | 2.98 |

// below: PBM binding z-score requested for another sequence
Incoming: Using the record for CGTCGAAGTTCAACTAAGGTAACGTAAAGCACGC , report its PBM binding z-score.
Outgoing: 3.53

* * *

System: LXRb homodimer (NR concentration 270 nM)
Experiment: PBM binding z-score (relative to random genomic background probes); higher = stronger binding; sequences stand for … in GC…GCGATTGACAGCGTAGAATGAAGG
Class TRUE: PBM binding z-score at least 0.07. Class FALSE: PBM binding z-score below 0.07.

| Monomer sequence | Assigned category |
| --- | --- |
| ACTCGGAGGACATAGGTCAGAGCTACGCCAGTGA | FALSE |
| CGTCATAGTTCAACTAAGGTAACGTAAAGCACGC | TRUE |
| CCTAGCTGGTCAAGGTCACACACGCTATAGGTAC | TRUE |
| CTCGAAATGTCGTGCTCAGGTGAGTATACCAAAC | FALSE |
| CATACAGGGTCAGCTAGGCCGGAGTAGGGACGGC | TRUE |

Incoming: Does the reported PBM binding z-score for CCTAGCAGGCCAATCTGGGTCACGCAAGGCTTGA fall at or above the 0.07 mark?
Outgoing: FALSE

Incoming: For this sequence, is measured PBM binding z-score 0.07 or higher? AGAATGAGGTTAGACGTAGATCAGGGAAGAAAGT
Outgoing: FALSE

Incoming: Threshold query (PBM binding z-score >= 0.07) on CGTCCAAGGTCAAGGCTAGGTCAGTGAAAGCATT
Outgoing: FALSE

Incoming: Assess whether reported PBM binding z-score for CCTCGGAGGACAGAAGGTCAGCGCTGTCCGCTTT sits at 0.07 or higher.
Outgoing: FALSE

* * *

PBM binding z-score values for the sequences below.
Test system: PPARg:RXRa 30nM:10nM, anti-RXR (NR concentration 30 nM, RXRa partner concentration 10 nM)
Assay: PBM binding z-score (relative to random genomic background probes); higher = stronger binding; sequences stand for … in GC…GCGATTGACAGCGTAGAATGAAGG
// no unit string in output, number only

Some sequences with recorded PBM binding z-score:
| Monomer sequence | PBM binding z-score |
| --- | --- |
| CGAACGAGGGCTTGAGTTGATAGCAAATGCCGAT | -0.548 |
| CAAACTAGGTCAAGGTCAACGTCGGTTTGTGCCA | 6.56 |
| CCTACTGGGCCAAAAAGGTCACTGATGCCGATAA | 1.79 |
| ACTCGTTGGTCAGCTGAGGTCACACACAATTCGG | 0.425 |

Incoming: What PBM binding z-score value was documented for this sequence, TCATATAGGTAAATGCTAGGTGAAAGACCGATCT ?
Outgoing: 3.79

Incoming: Please give the measured PBM binding z-score for this sequence: CAAACTAGGTCACCGGAATGTCAAAGTCCGCATG
Outgoing: 5.76

* * *

Test system: PPARg:RXRa 270nM:90nM, anti-RXR (NR concentration 270 nM, RXRa partner concentration 90 nM)
Test: PBM binding z-score (relative to random genomic background probes); higher = stronger binding; sequences stand for … in GC…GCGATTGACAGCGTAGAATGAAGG
This listing pairs sequences with measured PBM binding z-score.
Answer with a bare number; do not write a unit.

Recorded PBM binding z-score, per entry:
| Monomer sequence | PBM binding z-score |
| --- | --- |
| ACTATTAGCTGACTTAGGGCAACCGATACGACGC | 0.11 |
| TCATATAGGTAAATGCCAGGTGAAAGTCCGATCT | 2.48 |
| ACTATTGGTTGAGACGAGGGCAACCGATAGGTTG | 0.157 |
| CATACAGGTTCAGCTAGGCCAGAGTAGGGACGGC | 0.338 |
| TCATCTAGGTAAACAGGTGAAAGTCCGTAAGTTA | 3.94 |

Incoming: For the sequence ATCTTTAGGTAACCAAGTTCAGTGAATGCCGAAC , what PBM binding z-score is on record?
Outgoing: 0.52

Incoming: What value of measured PBM binding z-score is listed for TTACCAAGGTAAGCTGAGGTCGTTGATCCAACTC ?
Outgoing: 0.0724

Incoming: PBM binding z-score lookup needed for ATCTCTAGGTAAAGTTTAGTGAAAGATCGATAGA , thanks.
Outgoing: 1.36

Incoming: Item under review: TCTGCTAGGCCAGTTGGTCAGCTAACGAGCTGCC . Reported PBM binding z-score?
Outgoing: 0.229

Incoming: Name the reported PBM binding z-score value associated with the sequence CCTACTGGGCCATTCAGAGGTCATTGAGCATATG
Outgoing: 3.28

* * *

Test system: PXR:RXRa (NR concentration 270 nM, RXRa partner concentration 90 nM)
Experiment: PBM binding z-score (relative to random genomic background probes); higher = stronger binding; sequences stand for … in GC…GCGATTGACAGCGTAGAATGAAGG
Quantity: PBM binding z-score
# respond with the number and nothing more

These solved cases illustrate the format of a correct answer.
| Monomer sequence | PBM binding z-score |
| --- | --- |
| GCTGCTAGGTCGGGTTGGTCAGCTAACGGGTACG | -0.0179 |
| CAAACTAGGTCACAGAGGTCAAAGGCCGTGCGTA | 6.54 |
| GATACAGGGTCAGCTAGGGGCCAGAGTATGGAAA | 2.94 |
| ACTAGATGGTCAGCTGAGGTCACACACAATTCGG | 5.58 |
| TCTGCTAGGTCAGTTAGTCAGCTAACGAGCTGCC | 0.00438 |
| ATATGTAGGTAAAGGGTCATTCAGGTTGGTTCGC | 5.22 |

Incoming: // map TATACAGGGTCGAAGGCCAGAGTACGAATGTCGA to recorded PBM binding z-score (system: PXR:RXRa (NR concentration 270 nM, RXRa partner concentration 90 nM))
Outgoing: 1.01

Incoming: Give the reported PBM binding z-score for CGTCGAAGGTCAGCAGGTCAGTGAAAGCGACGTG (system: PXR:RXRa (NR concentration 270 nM, RXRa partner concentration 90 nM)).
Outgoing: 3.44

Incoming: Missing value: PBM binding z-score, PXR:RXRa (NR concentration 270 nM, RXRa partner concentration 90 nM), entry ACTTACGGGTCGACGAGGTTATAGCACGCGTATA . Fill in?
Outgoing: 2.68

Incoming: Request: PBM binding z-score, test system PXR:RXRa (NR concentration 270 nM, RXRa partner concentration 90 nM), entry CCTTACGGGTCACCAGGTTATAGCACGACGAGCG
Outgoing: 3.72

Incoming: // map CCTTACGGGTCACTGACAGGTTTTAGCATTTGGA to recorded PBM binding z-score (system: PXR:RXRa (NR concentration 270 nM, RXRa partner concentration 90 nM))
Outgoing: 2.98

Incoming: Please provide the recorded PBM binding z-score for ACTATCAGTTGACTTAGGGCAACCGATACGACGC , tested on PXR:RXRa (NR concentration 270 nM, RXRa partner concentration 90 nM).
Outgoing: -0.0461

* * *

Test system: VDR:RXRa (NR concentration 270 nM, RXRa partner concentration 90 nM)
Assay: PBM binding z-score (relative to random genomic background probes); higher = stronger binding; sequences stand for … in GC…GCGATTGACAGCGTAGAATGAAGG
Using PBM binding z-score as the sorting value, the categories are bottom range (below 0.3), center range (0.3 to below 3), top range (3 or more)

Please review the following examples before continuing.
| Monomer sequence | Assigned category |
| --- | --- |
| CGTCCAAGATCAGAGAGGTCAGTGAATGCCGAGT | top range |
| ATATGTAGGTTGCATCCGGGTCATTCAGGCTATG | top range |
| AATACAGGGACACTAGGCCAGAGTAGGTACGAAT | bottom range |
| ATCTCTAGGTTACCAAGTTCAGTGAATGCCGAAC | top range |

Incoming: Could you place CCAAGTAGGTTATGGGGCATTCAGGCAACGGTGA in its proper category? Many thanks.
Outgoing: bottom range

Incoming: Where would CCTAGTTGGCCAGGAGGTCACACACCGGATATGA land among the classes by reported PBM binding z-score?
Outgoing: top range

Incoming: Into which bin does this sequence go? GATACAGGGTCTAGGCCAGAGTACGCGTATTGAT
Outgoing: bottom range

Incoming: Please indicate the class for TGAGACAGGTGAAGGTAACTCAGGTACGCAGTCG based on its PBM binding z-score.
Outgoing: bottom range

Incoming: # classify by PBM binding z-score band: ATATGTAGTTTAAGGGTCATTCAGGTTGGTTCGC
Outgoing: top range

Reference for the values: the supplement of paper PMC6555819
